Reference for the values: the supplement of paper PMC10567573

B1: CAMK2A (parent)
chain: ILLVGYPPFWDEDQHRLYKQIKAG

# Variants of: B1
# experiment description: protein stability index of a GFP-peptide fusion (GPS, HEK-293T) (PSI 1-6); higher = more stable;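 also: lentivirally expressed fusions sorted by FACS into six bins by GFP to DsRed ratio, PSI derived from sequencing read proportions per bin multiplied by bin number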
# measurement setup: c terminus: a fixed tail appended
measurement kind: protein stability index

polymer_sequence="ILLVGYPPFWDEDQHRLYKWIKAG [Q20W]" measurement_kind="protein stability index" reported_value=2.02
polymer_sequence="ILEVGYPPFWDEDQHRLYKQIKAG [L3E]" measurement_kind="protein stability index" reported_value=2.19
polymer_sequence="ILLEGYPPFWDEDQHRLYKQIKAG [V4E]" measurement_kind="protein stability index" reported_value=1.53
polymer_sequence="ILLVGYPPFWDEDQHRLYKQIGAG [K22G]" measurement_kind="protein stability index" reported_value=1.63
polymer_sequence="ILLVGYPPFWDEDQHRLYKQIKNG [A23N]" measurement_kind="protein stability index" reported_value=2.67

Now for the variant whose protein stability index we want.
Problem: Entry under review: ILLVGYPPDWDEDQHRLYKQIKAG [F9D] . Reported protein stability index?
Solution: 1.77
